- assay-text: NCI Yeast Anticancer Drug Screen. Data for the cln2 rad14 strain (AID 165);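 note: 0% = growth equal to vehicle treated cultures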
- measurement-parameters: S. cerevisiae cln2 rad14 strain, at 50.0 µM, stronger effect = higher value
- Protocol: Growth inhibition of yeast strains with defined genetic alterations is measured as a screen for potential anti-cancer activity. Selected strains with alterations in DNA damage repair or cell cycle control were exposed to compounds and growth inhibition was measured relative to vehicle treated controls. The strain used in this assay is cln2 rad14
The panel holds about 79,000 compounds, 15% with a hit somewhere; the sample as a whole holds those more often.
What growth inhibition was measured for each of the following?
Give bare numbers, in %.

| compound | growth inhibition, % |
| --- | --- |
| CC(=O)[C@H]1[C@H](C)C[C@H]2[C@@H]3CCC4=CC(=O)CC[C@]4(C)[C@@]3(F)C(=O)C[C@@]21C | -28.4 |
| CCCCc1c(O)nc(NCCCC(N)C(=O)O)[nH]c1=O (stereo unspecified) | -28.9 |
| Cc1cccc2c1-c1c(C)cccc1C(Cl)S(=O)(=O)C2 (stereo unspecified) | 4.55 |
| N#CCCN(CCC#N)S(=O)(=O)c1ccccc1 | -4.2 |
| CC(=O)N(CCCc1ccccc1)C(C)(C)C | -22.1 |

Provide reported growth inhibition for each item, in the same order as listed.
1. Cc1c(O)c([N+](=O)[O-])cc2c1OCOC2
2. NS(=O)(=O)c1ccc(NC(NC(=O)C(C(F)(F)F)C(F)(F)F)(C(F)(F)F)C(F)(F)F)cc1
3. O=C1NN(c2ccccc2)CCO1
4. FC(F)(F)C1(F)C(F)(F)C(F)(F)C(F)(F)C(F)(F)C1(F)F

# output
1. -9.4
2. -8.25
3. -18.6
4. -96.2

Provide reported growth inhibition for each item, in the same order as listed.
1. O=P(O)(O)c1ccc2c(c1)OCCOCCOCCOCCO2
2. CN(CC(C)(C)C(O)c1ccccc1)C(=O)c1ccccc1 (stereo unspecified)

# output
1: -21.9; 2: 20.7
